test system: KM12; experiment: Growth inhibition of human KM12 cells assessed as cell growth at 10 uM incubated for 48 hrs by sulforhodamine B assay relative to control; type: functional; conditions: KM12, 48 h, read-out: Activity

{"test smiles": "Cc1nc2cc(O)c(O)cc2cc1Oc1ccc(NC(=O)Nc2ccc(Cl)c(Cl)c2)cc1", "growth at 10 µM": "74.7%"}
{"test smiles": "COc1cc2cc(Oc3ccc(NC(=O)Nc4ccc(Cl)c(C(F)(F)F)c4)cc3)c(C)nc2cc1OC", "growth at 10 µM": "-16.4%"}
{"test smiles": "COc1cc2cc(Oc3ccc(NC(=O)Nc4cc(C(F)(F)F)cc(C(F)(F)F)c4)cc3)c(C)nc2cc1OC", "growth at 10 µM": "5.61%"}
{"test smiles": "COc1cc2cc(Oc3ccc(NC(=O)Nc4ccccc4)cc3)c(C)nc2cc1OC", "growth at 10 µM": "70.3%"}
{"test smiles": "COc1cc2cc(Oc3ccc(NC(=O)Nc4ccc(C(F)(F)F)cc4)cc3)c(C)nc2cc1OC", "growth at 10 µM": "64.4%"}
{"test smiles": "COc1cc2cc(Sc3ccc(NC(=O)Nc4ccc(Cl)c(Cl)c4)cc3)c(C)nc2cc1OC", "growth at 10 µM": "74.5%"}
{"test smiles": "COc1cc2cc(Oc3ccc(NC(=O)Nc4cccc(C(F)(F)F)c4)cc3)c(C)nc2cc1OC", "growth at 10 µM": "-10.2%"}
{"test smiles": "COc1cc2cc(Oc3ccc(NC(=O)Nc4ccc(C)cc4)cc3)c(C)nc2cc1OC", "growth at 10 µM": "104%"}
{"test smiles": "COc1cc2cc(Oc3ccc(NC(=O)Nc4ccc(Cl)c(Cl)c4)cc3)c(C)nc2cc1OC", "growth at 10 µM": "13.9%"}

* * *

tested on: SR; test: Growth inhibition of human SR cells assessed as cell growth at 10 uM incubated for 48 hrs by sulforhodamine B assay relative to control; assay type: functional; conditions: read-out: Activity
Define the label as satisfied when growth at 10 µM is strictly less than 40% and as not satisfied in all remaining cases.

{"test smiles": "COc1cc2cc(Oc3ccc(NC(=O)Nc4ccc(Cl)c(C(F)(F)F)c4)cc3)c(C)nc2cc1OC", "class assignment": "satisfied"}
{"test smiles": "COc1cc2cc(Oc3ccc(NC(=O)Nc4ccc(C(F)(F)F)cc4)cc3)c(C)nc2cc1OC", "class assignment": "not satisfied"}
{"test smiles": "COc1cc2cc(Sc3ccc(NC(=O)Nc4ccc(Cl)c(Cl)c4)cc3)c(C)nc2cc1OC", "class assignment": "not satisfied"}
{"test smiles": "COc1cc2cc(Oc3ccc(NC(=O)Nc4ccccc4)cc3)c(C)nc2cc1OC", "class assignment": "not satisfied"}
{"test smiles": "Cc1nc2cc(O)c(O)cc2cc1Oc1ccc(NC(=O)Nc2ccc(Cl)c(Cl)c2)cc1", "class assignment": "satisfied"}
{"test smiles": "COc1cc2cc(Oc3ccc(NC(=O)Nc4ccc(Cl)c(Cl)c4)cc3)c(C)nc2cc1OC", "class assignment": "satisfied"}
{"test smiles": "COc1cc2cc(Oc3ccc(NC(=O)Nc4cccc(C(F)(F)F)c4)cc3)c(C)nc2cc1OC", "class assignment": "satisfied"}
{"test smiles": "COc1cc2cc(Oc3ccc(NC(=O)Nc4ccc(C)cc4)cc3)c(C)nc2cc1OC", "class assignment": "not satisfied"}

* * *

tested on: KM12; assay: Growth inhibition of human KM12 cells incubated for 48 hrs by sulforhodamine B assay; assay type: functional; settings: KM12, 48 h
# binarize TGI: threshold 6 µM inclusive, high side Condition met, low side Condition not met

{"test smiles": "COc1cc2cc(Oc3ccc(NC(=O)Nc4ccc(Cl)c(C(F)(F)F)c4)cc3)c(C)nc2cc1OC", "class assignment": "Condition not met"}
{"test smiles": "COc1cc2cc(Oc3ccc(NC(=O)Nc4cc(C(F)(F)F)cc(C(F)(F)F)c4)cc3)c(C)nc2cc1OC", "class assignment": "Condition not met"}
{"test smiles": "CNC(=O)c1cc(Oc2ccc(NC(=O)Nc3ccc(Cl)c(C(F)(F)F)c3)cc2)ccn1", "class assignment": "Condition not met"}
{"test smiles": "Cc1nc2cc(O)c(O)cc2cc1Oc1ccc(NC(=O)Nc2ccc(Cl)c(Cl)c2)cc1", "class assignment": "Condition met"}
{"test smiles": "COc1cc2cc(Oc3ccc(NC(=O)Nc4ccc(Cl)c(Cl)c4)cc3)c(C)nc2cc1OC", "class assignment": "Condition met"}

* * *

Recorded CC50 by entry
test system: NCI-H322M; assay: Growth inhibition of human NCI-H322M cells incubated for 48 hrs by sulforhodamine B assay; type: functional; details: read-out: LC50 (the source's name)

{"test smiles": "COc1cc2cc(Oc3ccc(NC(=O)Nc4ccc(Cl)c(C(F)(F)F)c4)cc3)c(C)nc2cc1OC", "operator symbol": "=", "CC50 / µM": 16.3}
{"test smiles": "COc1cc2cc(Oc3ccc(NC(=O)Nc4cc(C(F)(F)F)cc(C(F)(F)F)c4)cc3)c(C)nc2cc1OC", "operator symbol": "=", "CC50 / µM": 5.7}
{"test smiles": "Cc1nc2cc(O)c(O)cc2cc1Oc1ccc(NC(=O)Nc2ccc(Cl)c(Cl)c2)cc1", "operator symbol": ">", "CC50 / µM": 32.5}
{"test smiles": "COc1cc2cc(Oc3ccc(NC(=O)Nc4ccc(Cl)c(Cl)c4)cc3)c(C)nc2cc1OC", "operator symbol": ">", "CC50 / µM": 100}
{"test smiles": "COc1cc2cc(Oc3ccc(NC(=O)Nc4cccc(C(F)(F)F)c4)cc3)c(C)nc2cc1OC", "operator symbol": ">", "CC50 / µM": 50}

* * *

tested on: OVCAR-3; experiment: Growth inhibition of human OVCAR3 cells incubated for 48 hrs by sulforhodamine B assay; assay type: functional; conditions: OVCAR-3, 48 h
experimental readout: TGI (µM)

{"molecule": "COc1cc2cc(Oc3ccc(NC(=O)Nc4cccc(C(F)(F)F)c4)cc3)c(C)nc2cc1OC", "experimental readout": "TGI", "result number": 8.07}
{"molecule": "COc1cc2cc(Oc3ccc(NC(=O)Nc4ccc(Cl)c(C(F)(F)F)c4)cc3)c(C)nc2cc1OC", "experimental readout": "TGI", "result number": 4.45}
{"molecule": "Cc1nc2cc(O)c(O)cc2cc1Oc1ccc(NC(=O)Nc2ccc(Cl)c(Cl)c2)cc1", "experimental readout": "TGI", "result number": 19.9}
{"molecule": "COc1cc2cc(Oc3ccc(NC(=O)Nc4ccc(Cl)c(Cl)c4)cc3)c(C)nc2cc1OC", "experimental readout": "TGI", "result number": 6.19}
{"molecule": "CNC(=O)c1cc(Oc2ccc(NC(=O)Nc3ccc(Cl)c(C(F)(F)F)c3)cc2)ccn1 [SORAFENIB]", "experimental readout": "TGI", "result number": 3.98}
{"molecule": "COc1cc2cc(Oc3ccc(NC(=O)Nc4cc(C(F)(F)F)cc(C(F)(F)F)c4)cc3)c(C)nc2cc1OC", "experimental readout": "TGI", "result number": 1.7}

* * *

target: Serine/threonine-protein kinase B-raf (Homo sapiens)
Sequence (P15056 whole entry): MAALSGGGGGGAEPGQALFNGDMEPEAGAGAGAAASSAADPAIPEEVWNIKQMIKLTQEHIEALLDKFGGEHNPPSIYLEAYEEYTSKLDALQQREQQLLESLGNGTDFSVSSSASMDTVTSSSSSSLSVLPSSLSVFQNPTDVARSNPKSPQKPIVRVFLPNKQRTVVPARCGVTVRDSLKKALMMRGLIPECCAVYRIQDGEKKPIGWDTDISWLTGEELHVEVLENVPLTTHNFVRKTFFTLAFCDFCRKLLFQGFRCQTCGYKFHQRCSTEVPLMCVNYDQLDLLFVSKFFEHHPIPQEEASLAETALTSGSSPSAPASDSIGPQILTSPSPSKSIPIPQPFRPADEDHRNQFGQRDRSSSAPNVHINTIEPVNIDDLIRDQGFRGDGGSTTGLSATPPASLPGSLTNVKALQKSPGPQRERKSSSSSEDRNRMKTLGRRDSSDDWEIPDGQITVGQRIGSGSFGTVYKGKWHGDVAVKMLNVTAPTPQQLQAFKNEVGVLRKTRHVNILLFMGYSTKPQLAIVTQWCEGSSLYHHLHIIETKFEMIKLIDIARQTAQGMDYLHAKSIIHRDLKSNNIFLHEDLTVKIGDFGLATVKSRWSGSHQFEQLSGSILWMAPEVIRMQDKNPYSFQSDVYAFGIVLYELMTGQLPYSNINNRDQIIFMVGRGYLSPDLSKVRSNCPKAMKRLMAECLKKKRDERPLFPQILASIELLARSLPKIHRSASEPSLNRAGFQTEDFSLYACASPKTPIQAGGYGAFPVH

{"test smiles": "COc1cc2cc(Oc3ccc(NC(=O)Nc4ccc(Cl)c(C(F)(F)F)c4)cc3)c(C)nc2cc1OC", "units label": "nM", "IC50": 1330}

* * *

Recorded log10 GI50 by entry
tested on: COLO 205; assay: Growth inhibition of human COLO205 cells incubated for 48 hrs by sulforhodamine B assay; assay type: functional; conditions: COLO 205, 48 h
experimental readout: log10 GI50 (log10 of the value in nM)

{"compound": "COc1cc2cc(Oc3ccc(NC(=O)Nc4cc(C(F)(F)F)cc(C(F)(F)F)c4)cc3)c(C)nc2cc1OC", "log10 GI50": 3.25}
{"compound": "COc1cc2cc(Oc3ccc(NC(=O)Nc4cccc(C(F)(F)F)c4)cc3)c(C)nc2cc1OC", "log10 GI50": 3.05}
{"compound": "CNC(=O)c1cc(Oc2ccc(NC(=O)Nc3ccc(Cl)c(C(F)(F)F)c3)cc2)ccn1 [SORAFENIB]", "log10 GI50": 3.30}
{"compound": "COc1cc2cc(Oc3ccc(NC(=O)Nc4ccc(Cl)c(Cl)c4)cc3)c(C)nc2cc1OC", "log10 GI50": 3.44}
{"compound": "Cc1nc2cc(O)c(O)cc2cc1Oc1ccc(NC(=O)Nc2ccc(Cl)c(Cl)c2)cc1", "log10 GI50": 4.01}
{"compound": "COc1cc2cc(Oc3ccc(NC(=O)Nc4ccc(Cl)c(C(F)(F)F)c4)cc3)c(C)nc2cc1OC", "log10 GI50": 2.82}

* * *

tested on: MDA-MB-435; experiment: Growth inhibition of human MDA-MB-435 cells incubated for 48 hrs by sulforhodamine B assay; type: functional; conditions: MDA-MB-435, 48 h

{"test smiles": "COc1cc2cc(Oc3ccc(NC(=O)Nc4ccc(Cl)c(Cl)c4)cc3)c(C)nc2cc1OC", "GI50 [nM]": 3090}
{"test smiles": "COc1cc2cc(Oc3ccc(NC(=O)Nc4cc(C(F)(F)F)cc(C(F)(F)F)c4)cc3)c(C)nc2cc1OC", "GI50 [nM]": 1800}
{"test smiles": "COc1cc2cc(Oc3ccc(NC(=O)Nc4cccc(C(F)(F)F)c4)cc3)c(C)nc2cc1OC", "GI50 [nM]": 1630}
{"test smiles": "COc1cc2cc(Oc3ccc(NC(=O)Nc4ccc(Cl)c(C(F)(F)F)c4)cc3)c(C)nc2cc1OC", "GI50 [nM]": 1030}
{"test smiles": "Cc1nc2cc(O)c(O)cc2cc1Oc1ccc(NC(=O)Nc2ccc(Cl)c(Cl)c2)cc1", "GI50 [nM]": 6990}
